Entry source: patent US20240287138A1

targetEntity: T1, TNFR1 on THP-1 Lucia NF-kB reporter cells (UniProt P19438 30-455, limits assumed)
T1 sequence (looked up): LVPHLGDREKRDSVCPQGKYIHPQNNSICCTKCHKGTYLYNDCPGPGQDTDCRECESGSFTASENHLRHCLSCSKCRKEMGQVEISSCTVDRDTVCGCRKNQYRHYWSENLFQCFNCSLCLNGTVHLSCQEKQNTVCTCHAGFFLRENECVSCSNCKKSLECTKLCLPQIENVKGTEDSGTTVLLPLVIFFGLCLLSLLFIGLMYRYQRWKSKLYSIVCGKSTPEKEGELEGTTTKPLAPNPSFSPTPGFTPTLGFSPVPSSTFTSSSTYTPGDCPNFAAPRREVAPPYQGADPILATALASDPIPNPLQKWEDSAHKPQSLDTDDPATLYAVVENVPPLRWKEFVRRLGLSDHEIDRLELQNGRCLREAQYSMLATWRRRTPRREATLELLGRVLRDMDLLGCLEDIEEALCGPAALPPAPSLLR
protocolSummary: cell-based or functional assay
Bridge positions count the residues as written; N and C are the ends. Square brackets hold non-standard residues; d marks the D form. Trp(βS-Me,7-OMe) = COc1cccc2c([C@H](C)[C@H](N)C(=O)O)c[nH]c12; Phe(2-F,4-COOH) = N[C@@H](Cc1ccc(C(=O)O)cc1F)C(=O)O; Trp(7-Cl) = N[C@@H](Cc1c[nH]c2c(Cl)cccc12)C(=O)O; Phe(4-COOH) = N[C@@H](Cc1ccc(C(=O)O)cc1)C(=O)O; 4Pal = N[C@@H](Cc1ccncc1)C(=O)O; NMeE = CN[C@@H](CCC(=O)O)C(=O)O; d(αMeP) = C[C@]1(C(=O)O)CCCN1; αMeS = C[C@](N)(CO)C(=O)O; Nle = CCCC[C@H](N)C(=O)O; Pip2c = not defined here; cAcBu = not defined here; Qdm = not defined here; Sar = CNCC(=O)O
Rule: yes for THP-1 IC50 not less than 2 nM, no for anything less.

A selection of reference data follows.
[
  {
    "binder": "{CH2CO}-[Nle][4Pal][Pip2c]W[NMeE][Qdm][4Pal][Trp(7-Cl)][αMeS][Phe(4-COOH)]Y[Sar][Trp(βS-Me,7-OMe)]C-NH2 (thioether N-14 (inferred); reading uncertain; also: printed as cyclo(ClAc-Nle-4Pal-Pip2c-W-NMeE-Qdm-4Pal-Trp7Cl-aMeS-Phe4COOH-Y-Sar-SbMeW7OMe-C)-NH2) [SEQ ID NO. 75]",
    "assignedCategory": "yes"
  },
  {
    "binder": "{CH2CO}-[Nle][4Pal][Pipc4OH]W[NMeE]N[4Pal][Trp(7-Cl)][αMeS][Phe(4-COOH)]Y[Sar][Trp(βS-Me,7-OMe)]C-NH2 (thioether N-14 (inferred)) [SEQ ID NO. 71]",
    "assignedCategory": "yes"
  },
  {
    "binder": "{CH2CO}-[Nle][4Pal][Pip2c]W[d(αMeP)]N[4Pal][Trp(7-Cl)][αMeS][Phe(4-COOH)]Y[Sar][Trp(βS-Me,7-OMe)]C-NH2 (thioether N-14 (inferred); reading uncertain; also: printed as cyclo(ClAc-Nle-4Pal-Pip2c-W-daMeP-N-4Pal-Trp7Cl-aMeS-Phe4COOH-Y-Sar-SbMeW7OMe-C)-NH2) [SEQ ID NO. 76]",
    "assignedCategory": "yes"
  },
  {
    "binder": "cyclo([cAcBu][Nle][4Pal][Pip2c]W[NMeE]N[4Pal][Trp(7-Cl)][αMeS][Phe(4-COOH)]Y[Sar][Trp(βS-Me,7-OMe)]) (reading uncertain; also: printed as cyclo(cAcBu-Nle-4Pal-Pip2c-W-NMeE-N-4Pal-Trp7Cl-aMeS-Phe4COOH-Y-Sar-SbMeW7OMe)) [SEQ ID NO. 69]",
    "assignedCategory": "no"
  }
]

Could you now look at the following binder, please?
Item cyclo([bhcLeu][Nle][4Pal][Pip2c]W[NMeE]N[4Pal][Trp(7-Cl)][αMeS][Phe(4-COOH)][Phe(2-F,4-COOH)][Sar][Trp(βS-Me,7-OMe)]) (reading uncertain; also: printed as cyclo(bhcLeu-Nle-4Pal-Pip2c-W-NMeE-N-4Pal-Trp7Cl-aMeS-Phe4COOH-Phe2F4COOH-Sar-SbMeW7OMe)) [SEQ ID NO. 107] with THP-1 IC50 of 2 nM or above?
no
